Where these numbers come from: ChEMBL document CHEMBL2380298

# Tested on: Candida tropicalis
# ASSAY_PROTOCOL: Antimicrobial activity against Candida tropicalis ATCC 750 by broth dilution method
# Assay type: functional
MEASURE: MIC

>>> experimental_value("CCCCCCCCCCCCCCOc1ccc(CNC(CO)(CO)CO)cc1.Cl")
"32 µg/mL"
>>> experimental_value("CCC(C)n1ncn(-c2ccc(N3CCN(c4ccc(OCC5COC(Cn6cncn6)(c6ccc(Cl)cc6Cl)O5)cc4)CC3)cc2)c1=O (stereo not given) [ITRACONAZOLE]")
"> 512 µg/mL"
>>> experimental_value("CCCCCCOc1ccc(CNC(CO)(CO)CO)cc1.Cl")
"> 512 µg/mL"
>>> experimental_value("CCCCCCCCOc1ccc(CNC(CO)(CO)CO)cc1.Cl")
"32 µg/mL"
>>> experimental_value("CCCCOc1ccc(CNC(CO)(CO)CO)cc1.Cl")
"> 512 µg/mL"

====

# Tested on: Staphylococcus aureus
# ASSAY_PROTOCOL: Antimicrobial activity against methicillin-resistant Staphylococcus aureus clinical isolate 237 by broth dilution method
# Type: functional
Here, each record is paired with measured MIC data.
MEASURE: MIC (µg/mL)

>>> experimental_value("CCCCCCCCCCCCCCOc1ccc(CNC(CO)(CO)CO)cc1.Cl")
4
>>> experimental_value("CCCCCCCCCCCCOc1ccc(CNC(CO)(CO)CO)cc1.Cl")
4
>>> experimental_value("CCCCCCCCCCOc1ccc(CNC(CO)(CO)CO)cc1.Cl")
16
>>> experimental_value("CCCCCCCCOc1ccc(CNC(CO)(CO)CO)cc1.Cl")
16
>>> experimental_value("CCCCCCCCCOc1ccc(CNC(CO)(CO)CO)cc1.Cl")
16
>>> experimental_value("O=C(N[C@H](CO)[C@H](O)c1ccc([N+](=O)[O-])cc1)C(Cl)Cl")
32

====

# Tested on: Staphylococcus aureus
# ASSAY_PROTOCOL: Bactericidal activity against methicillin-resistant Staphylococcus aureus clinical isolate 231 after 24 hrs
# Format: functional
# TEST_SETTINGS: isolate 231, 24 h
MEASURE: MBC (µg/mL)

>>> experimental_value("O=C(N[C@H](CO)[C@H](O)c1ccc([N+](=O)[O-])cc1)C(Cl)Cl [CHLORAMPHENICOL]")
16
>>> experimental_value("CCCCCCCCCCCCOc1ccc(CNC(CO)(CO)CO)cc1.Cl")
4
>>> experimental_value("CCCCCCCCCCCCCCOc1ccc(CNC(CO)(CO)CO)cc1.Cl")
4
>>> experimental_value("CCCCCCCCCCOc1ccc(CNC(CO)(CO)CO)cc1.Cl")
8
>>> experimental_value("CCCCCCCCOc1ccc(CNC(CO)(CO)CO)cc1.Cl")
16
>>> experimental_value("CCCCCCCCCOc1ccc(CNC(CO)(CO)CO)cc1.Cl")
32

====

Here, each record is paired with measured MBC data.
# Test system: Staphylococcus epidermidis
# ASSAY_PROTOCOL: Bactericidal activity against Staphylococcus epidermidis ATCC 12228 after 24 hrs
# Format: functional
# TEST_SETTINGS: ATCC 12228, 24 h
MEASURE: MBC (µg/mL)

>>> experimental_value("CCCCCCCCCCCCCCOc1ccc(CNC(CO)(CO)CO)cc1.Cl")
512
>>> experimental_value("CCCCCCCCCCOc1ccc(CNC(CO)(CO)CO)cc1.Cl")
8
>>> experimental_value("CCCCCCCCCCCCOc1ccc(CNC(CO)(CO)CO)cc1.Cl")
8
>>> experimental_value("O=C(N[C@H](CO)[C@H](O)c1ccc([N+](=O)[O-])cc1)C(Cl)Cl")
128
>>> experimental_value("CCCCCCCCOc1ccc(CNC(CO)(CO)CO)cc1.Cl")
128
>>> experimental_value("CCCCCCCCCOc1ccc(CNC(CO)(CO)CO)cc1.Cl")
16

====

# Test system: Staphylococcus epidermidis
# ASSAY_PROTOCOL: Antimicrobial activity against Staphylococcus epidermidis ATCC 12228 by broth dilution method
# Type: functional
MEASURE: -logMIC

>>> experimental_value("CCCCCCCCCCCCOc1ccc(CNC(CO)(CO)CO)cc1.Cl")
4.73
>>> experimental_value("CCCCCCCCCCCCCCOc1ccc(CNC(CO)(CO)CO)cc1.Cl")
5.36
>>> experimental_value("CCCCCCOc1ccc(CNC(CO)(CO)CO)cc1.Cl")
3.43
>>> experimental_value("CCCCOc1ccc(CNC(CO)(CO)CO)cc1.Cl")
2.79
>>> experimental_value("CCCCCCCCCCOc1ccc(CNC(CO)(CO)CO)cc1.Cl")
5
>>> experimental_value("CCCCCCCCCOc1ccc(CNC(CO)(CO)CO)cc1.Cl")
4.68
>>> experimental_value("CCCCCCCCOc1ccc(CNC(CO)(CO)CO)cc1.Cl")
4.37
